The reported measurements were obtained from the supplement of paper PMC8024199.

# System: Ba/F3 P210-BCR-ABL1 RUNX1wt/wt control (mouse)
# experimental details: drug sensitivity score (DSS) (DSS score); higher = more sensitive (stronger growth inhibition); extreme values may be limits of the assay
So I've got a bunch of molecules here, and I need their drug sensitivity score values.

Exercise: Query drug sensitivity score on Ba/F3 P210-BCR-ABL1 RUNX1wt/wt control (mouse) for CC/C(=C(\c1ccc(O)cc1)c1ccc(OCCN(C)C)cc1)c1ccccc1 [4-hydroxytamoxifen]
Solution: 8.6

Exercise: Request: drug sensitivity score, test system Ba/F3 P210-BCR-ABL1 RUNX1wt/wt control (mouse), entry CCS(=O)(=O)Nc1ccc(Oc2ccc(F)cc2F)c(-c2cn(C)c(=O)c3[nH]ccc23)c1 [Mivebresib]
Solution: 34

Exercise: So what drug sensitivity score did Cc1cnc(NC(=O)Nc2cc(Br)c(C)cc2OC[C@@H]2CNCCO2)cn1 [Rabusertib] get with Ba/F3 P210-BCR-ABL1 RUNX1wt/wt control (mouse)?
Solution: 0.45

Exercise: Query drug sensitivity score on Ba/F3 P210-BCR-ABL1 RUNX1wt/wt control (mouse) for COc1ccc(COc2cc3oc(=O)c4cc(C(C)O)ccc4c3cc2OC)cc1 (centres undefined) [Palomid-529]
Solution: 0.4

----------
# Tested on: Mye-BP RUNX1 p.R162K
# experimental details: drug sensitivity score (DSS) (DSS score); higher = more sensitive (stronger growth inhibition); extreme values may be limits of the assay
observation type: drug sensitivity score
Answer with the value's number alone.

Exercise: Which drug sensitivity score reading was recorded for the molecule COc1cc2/c(=N/c3ccc(Br)cc3F)nc[nH]c2cc1OCC1CCN(C)CC1 ?
Solution: 8.44

Exercise: Report drug sensitivity score for Cc1[nH]c2ccccc2c1CCNCc1ccc(/C=C/C(=O)NO)cc1 please.
Solution: 21.5

Exercise: For the molecule Nc1nc2[nH]cnc2c(=S)[nH]1 , what drug sensitivity score is on record?
Solution: 4.83

Exercise: Consider the molecule shown here: CS(=O)(=O)CCNCc1ccc(-c2ccc3ncnc(Nc4ccc(OCc5cccc(F)c5)c(Cl)c4)c3c2)o1 What is its recorded drug sensitivity score?
Solution: 0

Exercise: Which drug sensitivity score value belongs to CNNCc1ccc(C(=O)NC(C)C)cc1 ?
Solution: 0

Exercise: Given the molecule CC(C)(C)c1cnc(CSc2cnc(NC(=O)C3CCNCC3)s2)o1 , what is its reported drug sensitivity score?
Solution: 29.1

Exercise: I am curious: what drug sensitivity score value has been reported for CN1CCN(c2ccc3nc(-c4c(N)c5c(F)cccc5[nH]c4=O)[nH]c3c2)CC1 ?
Solution: 0

Exercise: Recorded drug sensitivity score for Clc1ccc(C(c2ccccc2Cl)C(Cl)Cl)cc1 (stereo unspecified) , please?
Solution: 0

Exercise: Any idea what drug sensitivity score was measured for CCCCCCCCc1ccc(CCC(N)(CO)CO)cc1 ?
Solution: 8.34

Exercise: Using the record for COC1=CC(c2cc3ccccc3[nH]2)=N/C1=C\c1[nH]c(C)cc1C , report its drug sensitivity score.
Solution: 1.77

Exercise: Need drug sensitivity score of Cc1ccc(NC(=O)c2ccc(CN3CCN(C)CC3)cc2)cc1Nc1nccc(-c2cccnc2)n1 , thanks.
Solution: 19.2

Exercise: Give its drug sensitivity score value. Item: CC(=O)O[C@@]12CO[C@@H]1C[C@H](O)[C@@]1(C)C(=O)[C@H](O)C3=C(C)[C@@H](OC(=O)[C@H](O)[C@@H](NC(=O)OC(C)(C)C)c4ccccc4)C[C@@](O)([C@@H](OC(=O)c4ccccc4)[C@H]21)C3(C)C
Solution: 21.3

Exercise: Bench note: what drug sensitivity score did C[C@]12C=CC(=O)C=C1CC[C@@H]1[C@@H]2[C@@H](O)C[C@@]2(C)[C@H]1CC[C@]2(O)C(=O)CO show?
Solution: 5.82

Exercise: Which drug sensitivity score value belongs to CC(=O)[C@]1(O)Cc2c(O)c3c(c(O)c2[C@@H](O[C@H]2C[C@H](N)[C@H](O)[C@H](C)O2)C1)C(=O)c1ccccc1C3=O ?
Solution: 14.8

Exercise: Give its drug sensitivity score value. Item: O=c1[nH]c(=O)n([C@H]2C[C@H](O)[C@@H](CO)O2)cc1F
Solution: 6.18

Exercise: Need drug sensitivity score of Nc1ccn([C@@H]2O[C@H](CO)[C@@H](O)C2(F)F)c(=O)n1 , thanks.
Solution: 22.4

----------
# Test system: Ba/F3 P210-BCR-ABL1 RUNX1wt/wt control (mouse)
# experimental details: drug sensitivity score (DSS) (DSS score); higher = more sensitive (stronger growth inhibition); extreme values may be limits of the assay
observation type: drug sensitivity score
Reply: number alone, nothing else.

Exercise: What value of drug sensitivity score has been reported for the following compound? CC(C)[C@@H](CS(=O)(=O)C(C)C)N1C(=O)[C@@](C)(CC(=O)O)C[C@H](c2cccc(Cl)c2)[C@H]1c1ccc(Cl)cc1
Solution: 3.7

Exercise: Can you share its drug sensitivity score? I mean this compound: CC(C)C[C@H](NC(=O)[C@H](CCc1ccccc1)NC(=O)CN1CCOCC1)C(=O)N[C@@H](Cc1ccccc1)C(=O)N[C@@H](CC(C)C)C(=O)[C@@]1(C)CO1
Solution: 25.6

Exercise: Which measured drug sensitivity score value corresponds to COC(=O)c1ccc([C@H]2c3[nH]c4ccccc4c3C[C@H](C(=O)OC)N2C(=O)CCl)cc1 ?
Solution: 0

Exercise: I would be grateful if you could share the reported drug sensitivity score for O=c1[nH]c(C2CCCN2)nc2c1oc1ccc(Cl)cc12 (configuration not stated) .
Solution: 0

Exercise: Given CCNCCS(=O)(=O)NC[C@@]1(c2ccccc2)SC(NC(=O)C(C)(C)C)=NN1C(=O)C(C)(C)C , state its recorded drug sensitivity score.
Solution: 10.9

Exercise: For the compound shown here, Cn1cc(C2=C(c3cn(C4CCN(Cc5ccccn5)CC4)c4ccccc34)C(=O)NC2=O)c2ccccc21 , give the reported drug sensitivity score.
Solution: 0.7

Exercise: Entry C/C(=C\c1csc(C)n1)[C@@H]1C[C@@H]2O[C@]2(C)CCC[C@H](C)[C@H](O)[C@@H](C)C(=O)C(C)(C)[C@@H](O)CC(=O)N1 [Ixabepilone] has what drug sensitivity score?
Solution: 3.65

----------
# System: Ba/F3 P210-BCR-ABL1 RUNX1wt/wt control (mouse)
# experimental details: drug sensitivity score (DSS) (DSS score); higher = more sensitive (stronger growth inhibition); extreme values may be limits of the assay
Kindly supply the reported drug sensitivity score values for the records listed here.
// print number alone

Exercise: So what's the measured drug sensitivity score for this one? COc1ccc(C[C@H](NC(=O)[C@H](C)NC(=O)CN2CCOCC2)C(=O)N[C@@H](Cc2ccccc2)C(=O)C2(C)CO2)cc1 (stereo in doubt)
Solution: 17.8

Exercise: # drug sensitivity score lookup, item COc1cc2c(cc1OCCCN1CCCC1)N=C(N)C21CCC1
Solution: 0

Exercise: Would you kindly share the measured drug sensitivity score for CC(=O)O[C@H]1C(=O)[C@@]2(C)[C@H]([C@H](OC(=O)c3ccccc3)[C@]3(O)C[C@H](OC(=O)[C@H](O)[C@@H](NC(=O)c4ccccc4)c4ccccc4)C(C)=C1C3(C)C)[C@]1(OC(C)=O)CO[C@@H]1C[C@@H]2O ?
Solution: 18.8

Exercise: Which drug sensitivity score is reported for this compound? C[C@]12CC[C@H](O)CC1=CC[C@@H]1[C@@H]2CC[C@]2(C)C(c3cccnc3)=CC[C@@H]12
Solution: 0

Exercise: Please give the measured drug sensitivity score for this compound: N#CC(c1ccnc(OCc2ccc(CN3CCOCC3)cc2)n1)c1nc2ccccc2s1 (centres undefined)
Solution: 4.25

Exercise: Record request: drug sensitivity score value, item CN1CCc2c(c3ccccc3n2Cc2ccc(C(=O)NO)cc2)C1
Solution: 0

Exercise: Form field: reported drug sensitivity score of CC(C)[C@H]1C(=O)N[C@@H](CCCNC(=N)N)C(=O)NCC(=O)N[C@@H](CC(=O)O)C(=O)N[C@H](Cc2ccccc2)C(=O)N1C [Cilengitide]
Solution: 0

Exercise: GET /values?readout=drug sensitivity score&item= CN1CC[C@H](c2c(O)cc(O)c3c(=O)cc(-c4ccccc4Cl)oc23)[C@H](O)C1
Solution: 17.7

Exercise: Suppose we examine the compound CC1=C(/C=C/C(C)=C/C=C/C(C)=C/C(=O)O)C(C)(C)CCC1 ; what drug sensitivity score value has been reported?
Solution: 0

Exercise: Tell me the measured drug sensitivity score of COCC[n+]1c2c(n(Cc3cnccn3)c1C)C(=O)c1ccccc1C2=O [Sepantronium bromide] , please.
Solution: 6.85

Exercise: May I ask what drug sensitivity score has been recorded for COc1cc([C@@H]2c3cc4c(cc3[C@@H](O[C@@H]3O[C@@H]5CO[C@@H](C)O[C@H]5[C@H](O)[C@H]3O)[C@H]3COC(=O)[C@H]23)OCO4)cc(OC)c1O [Etoposide] ?
Solution: 12.2

Exercise: # get_value(readout='drug sensitivity score', item= CCC(C)(C)C(=O)O[C@H]1C[C@@H](C)C=C2C=C[C@H](C)[C@H](CC[C@@H]3C[C@@H](O)CC(=O)O3)[C@H]21 )
Solution: 0.05

Exercise: Quick one: drug sensitivity score of Cc1ncc(-c2ccnc(Nc3ccc(S(C)(=O)=O)cc3)n2)n1C(C)C ?
Solution: 9.8

Exercise: So what does the record say about drug sensitivity score for CC(C)(C)c1cc(NC(=O)Nc2ccc(Oc3ccnc4[nH]c(=O)cnc34)cc2F)n(-c2ccccc2)n1 ?
Solution: 17.4
